# METHOD: Reversal of P-gp mediated multidrug resistance in human DU145-TxR cells overexpressing P-gp assessed as potentiation of paclitaxel-induced cytotoxicity by measuring paclitaxel IC50 at 7 uM after 48 hrs by MTT assay (Rvb = 2120 nM)
RECORDED_ENDPOINT: pIC50
Worth noting: pIC50 values are minus log10 of concentrations stated in mol/L.

Known pIC50 results, listed for orientation:
Cc1cc(C)c(-c2cc(NC(=O)CSCC(=O)Nc3ccc4ccccc4c3)n(-c3ccccc3)n2)cc1C    8.15
Cc1cc(C)c(-c2cc(NC(=O)CSc3nnc4c(n3)[nH]c3ccccc34)n(-c3ccccc3)n2)cc1C    7.77
Cc1cc(C)c(-c2cc(NC(=O)CSCC(=O)N3c4ccccc4CCc4ccccc43)n(-c3ccccc3)n2)cc1C    8.22
Cc1cc(C)c(-c2cc(NC(=O)CSc3cccc(NC(=O)c4cncc(Br)c4)c3)n(-c3ccccc3)n2)cc1C    8.05

Kindly review the next compound as well.
[ask] Looking for the measured pIC50 of Cc1cc(C)c(-c2cc(NC(=O)CSCC(=O)NC(c3ccccc3)c3ccccc3)n(-c3ccccc3)n2)cc1C , can you help?
[reply] 7.80

From: BindingDB's records for doi:10.1021/acs.jmedchem.9b00966
